Values from the supplement of paper PMC10567573

ASSAY_INFO: protein stability index of a GFP-peptide fusion (GPS, HEK-293T) (PSI 1-6); higher = more stable;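 note: 24-mer peptide tiles fused after GFP, lentivirally expressed, FACS-sorted into six equal bins by GFP/DsRed ratio, decoded by Illumina sequencing, PSI is the read-weighted mean bin number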
TEST_SETTINGS: treatment: MLN4924 1 uM, 8 h; c terminus: a fixed tail appended
ENDPOINT_NAME: protein stability index

Consider the following illustrative entries.
| SEQUENCE_CHAIN | ENDPOINT_NAME | VALUE_MEASURED |
| --- | --- | --- |
| NDFWRIEVVNRKFGNRIKVLRSRI [POMT2] | protein stability index | 2.17 |
| TRIFTEDRFAQDSEMKKCSDYESI [PPEF2] | protein stability index | 4.25 |
| LLLAHKADVNAQSSTGNTALTYAC [ANKRD17] | protein stability index | 2.57 |
| GKSPSITFEYTLLQPPHESRPQPI [ADAMTSL2] | protein stability index | 2.83 |
| FPKNRVLEGVIDRYQQSKAAALKC [TRIM9] | protein stability index | 3.2 |
| SKRKAETWKKNRRQLAYSTVGTPD [STK38L] | protein stability index | 4.33 |
| RKILVLDLDETLIHSHHDGVLRPT [CTDNEP1] | protein stability index | 2.61 |
| SEKRRDPPNGPNLPMATVDIKNPE [WASL] | protein stability index | 5.28 |

Working through the 2 sequences below one at a time, give protein stability index for each.
1. AKMLLHEGQHPAQLRSDVCTPGGT [PYCR3]
2. HQADLEVANRHGHTCLMISCYKGH [FEM1A]

1: 4.58; 2: 2.69

----------
ASSAY_INFO: protein stability index of a GFP-peptide fusion (GPS, HEK-293T) (PSI 1-6); higher = more stable
TEST_SETTINGS: treatment: DMSO; c terminus: a fixed tail appended
ENDPOINT_NAME: protein stability index

Sample answers from the record:
| SEQUENCE_CHAIN | VALUE_MEASURED |
| --- | --- |
| HPFFDTAEPDMDDPAYIAVLVLIF [INTS4] | 2.61 |
| LLLAHKADVNAQSSTGNTALTYAC [ANKRD17] | 2.76 |
| IAAAVYIMDTVGNIWVCYASYVVF [SLC19A2] | 2.89 |
| FWYREALDISDSISESGGLNWKMT [SLC6A17] | 2.17 |
| TVPADGYILELDDGNGGQFREVYV [TRIM9] | 2.15 |
| MAHVDFRPPAYSPAQRSHTYTHGL | 2.8 |
| EQKAAGSASAKRVWNMTATRPKKM [FATE1] | 4.43 |
| VSCLGLGTWVTFGGQITDEMAEQL [KCNAB2] | 2.32 |
| TFHDSKHNIVHVHFDATRGWLLTS [WDFY2] | 2.44 |
| PISAIRHEGKTDSERTDTAADGET [EPB41L3] | 5.71 |

Report protein stability index for every entry below.
1. ADGQRHHSKLLVSGFWGVARHFNY [DHCR7]
2. GSLHYTTLRTLTGQDTMLKAMFSG [KCTD13]
3. YSECIVTVGGEERVSRKPTAAMRC [GAN]

1. 2.27
2. 2.46
3. 3.56

----------
ASSAY_INFO: protein stability index of a GFP-peptide fusion (GPS, HEK-293T) (PSI 1-6); higher = more stable
TEST_SETTINGS: treatment: MLN4924 1 uM, 8 h; c terminus: a fixed tail appended
ENDPOINT_NAME: protein stability index

| SEQUENCE_CHAIN | VALUE_MEASURED |
| --- | --- |
| FLIPMLEMVPEKRASAGECLRHPW [SRPK2] | 2.2 |
| LHKQTASDLLDEKEIAKNLIQPIN [FEM1C] | 3.89 |
| DDDDEEEEVSEVESFILDQDDLEN [ANKRD17] | 5.68 |
| WTLKLDGNLQLDCLAQGWKQYQQR [RTP4] | 2.55 |
| CTNTYVTGLSMIANGGAICAVTFF [OR4A15] | 3.33 |
| EEFISNTLFKKIQALQKEKETLAV [CCDC6] | 3.39 |

Please examine the following record next.
Write down protein stability index measured for item EGRLERRECGLAAPRFSFNDPSGS [IRX6]
3.98

----------
ASSAY_INFO: protein stability index of a GFP-peptide fusion (GPS, HEK-293T) (PSI 1-6); higher = more stable
TEST_SETTINGS: treatment: DMSO; c terminus: native
ENDPOINT_NAME: protein stability index

| SEQUENCE_CHAIN | protein stability index |
| --- | --- |
| GGSRGAPGLLMAVGQDLYCYSYS [DCAF4] | 3.16 |
| GNSTQATVRDAVVGRPSMDKKAQ [ATL3] | 5.28 |
| VNHRIYYKGHIPEKLETFVSLHR [FEM1C] | 2.24 |
| MPTQEVQELPIPSKLLEFLSYRI [WSB1] | 2.82 |
| ALATRALPCPAHVVFRYQGVRMS [FCHSD1] | 3.1 |
| AFADIIHSLKESGQLWLDAYLHQ [FADS1] | 2.7 |
| DLVPAALGSLTTAQIARSVWRPW [HES6] | 2.09 |
| TLAGLRSRRLKQPKAFCLRDVAP [MIR22HG] | 3.11 |
| SFSTGAGGWSNHHFCVILLGFLP [BET1L] | 2.99 |
| KREAGNLTKATAPDQKSSGGRDS [SSNA1] | 5.07 |

Give a short answer stating reported protein stability index for AKGKVQAELSQPLTAGGAISELL [RBBP5] .
4.18

----------
ASSAY_INFO: protein stability index of a GFP-peptide fusion (GPS, HEK-293T) (PSI 1-6); higher = more stable
TEST_SETTINGS: treatment: MLN4924 1 uM, 8 h; c terminus: a fixed tail appended
ENDPOINT_NAME: protein stability index
Give bare numbers.

| SEQUENCE_CHAIN | protein stability index |
| --- | --- |
| PTYKGLLMSLQNQLKESKSKIDAL [CEP70] | 2.86 |

Batch of 3 sequences: report protein stability index for each.
1. GLQSAQPTEGQGSLLTNWPSVPPT [MYBL2]
2. YAPEAPYTSPDKLKDIFMFITRQL [PDS5B]
3. ELFYRVNYIGTKNVIETCKEAGVQ [NSDHL]

4.14
1.97
2.08

Provide protein stability index for all items below, preserving their order.
1. DLGHVTRISSPQVEEGDSRFLANE [WEE1]
2. ATTISTSEDGSYGTDVTRCICGFT [KMT2E]
3. HKARTRPKARKQGVSPADMYRWKL [ADAMTSL2]
4. ETPQPSPPGGSGSEPYKLLPGAVA [HNF4A]
5. KQLEFGLKEAPVQDQGYKTLRLRE [ZNF8]
6. RSSSCGDTELLGQATLPVGSPSRP [C2CD2L]

1: 4.96; 2: 3.6; 3: 3.31; 4: 4.92; 5: 4.27; 6: 5.04

Okay, here is my list. What is protein stability index for each of these?
1. PDEAARARLLQEGGGGVAAVVVLD [DUSP5]
2. LLHVSSPNLASDSDLSRRSSSTMS [KCNA1]

[4.57, 4.37]

Dear colleague, could you send me protein stability index for each of the items below? Thanks.
1. THLEGDTVQIICNTGYRLQNNENN [CFHR2]
2. WEWNELIPQGICPVGRSWHSLTPV [KLHDC2]
3. RAFAQIGPARSGFRLETLAGLRSR [MIR22HG]
4. HTDMTNKQNKTPLDKSTTGVSEIL [FEM1B]

1. 3.87
2. 2.27
3. 3.2
4. 5.05

----------
ASSAY_INFO: protein stability index of a GFP-peptide fusion (GPS, HEK-293T) (PSI 1-6); higher = more stable
TEST_SETTINGS: treatment: MLN4924 1 uM, 8 h; c terminus: a fixed tail appended
Exercise: state measured protein stability index for each of the sequences provided.
One number for each entry.

Before answering, review these 5 worked examples.
| SEQUENCE_CHAIN | protein stability index |
| --- | --- |
| PALLEATGGAAGAGGAGRGEDEEN [KCTD13] | 5.64 |
| YRIRQVNIYYYLEDDSMSVIEPVV [EFHC1] | 2.55 |
| CEGKPYNQKSDIWALGCVLYELAS [NEK8] | 2.88 |
| CVPGQVFSPDGPSRFRKAYKPEQP [LOXL2] | 3.33 |
| EDVTVGRRQAVAWLVAMHKAAKLL [ZFYVE21] | 2.59 |

Would you be so kind as to report protein stability index for each listed record?
1. APNAWQVIKGVLFRIFIIWAISSW [CLPTM1]
2. KDLILRFCIDSENRIGNSGVEEIK [STK38L]
3. KLMKILQPQDVDLALDSGASLLHL [RIPK4]
4. VIRRLDETVVNRIAAGEVIQRPAN [MLH1]
5. FKDEYKSENIKLREENEKLRLENS [CCDC89]

[2.89, 2.85, 2.52, 3.92, 5.2]

Items follow; give protein stability index for each.
1. CHICHKKLYTGPGLAIHCMQVHKE [ZNF207]
2. AYDYAKEVNSAEELEGLIADPDEM [FEM1C]
3. FWYREALDISDSISESGGLNWKMT [SLC6A17]

1. 3.25
2. 5.51
3. 1.92
